- Tested on: γ-secretase; production of amyloid beta protein Aβ(1-42)
- measurement.protocol: Cell-Based γ-Secretase Assay with ELISA Readout
- applied.conditions: human WT-APP overexpressing CHO cells; footnote 8: single determination; read-out: Aβ 42B IC50 (nM) (Geometric Mean of 2-8 Determinations)
readout.type: IC50 (nM)

Example cases with answers are listed next.
{"molecule": "CC(C)CCN(CC1CCCCO1)[C@@H]1CC[C@@H](CC(=O)O)C[C@H]1c1ccc(C(F)(F)F)cc1 (stereo partly shown) [Example 17]", "IC50, nM": 1510}
{"molecule": "Cc1cc(Cl)ccc1[C@@H]1OC(CC(=O)O)CC[C@H]1N(CC1CCCC1)CC1CCCC1 (stereo in doubt) [Example 24]", "IC50, nM": 9190}
{"molecule": "O=C(O)C[C@@H]1CC[C@@H](N(Cc2ccc(F)cc2)CC2CCCC2)[C@H](c2ccc(C(F)(F)F)cc2)C1 [Example 26]", "IC50, nM": 190}

(1) O=C(O)C[C@@H]1CC[C@@H](N(CC2CCCC2)CC2CCCC2)[C@H](c2cccc(C(F)(F)F)c2)O1 [Example 20]
(2) O=C(O)C[C@@H]1CC[C@@H](N(CC2CCCC2)CC2CCCC2)[C@H](c2ccc(F)cc2)C1 [Example 18]
Asked: Would you kindly point out which of 1 and 2 has the smaller IC50 figure? Identify your pick by its label.
Given back: 1
(1: 959 nM, 2: 2630 nM)

(I) CC1CN([C@@H]2CC[C@@H](CC(=O)O)C[C@H]2c2ccc(C(F)(F)F)cc2)CC2(CCCCC2)C1 (stereo partly shown) [Example 23]
(II) O=C(O)C[C@@H]1CC[C@@H](N2C[C@@H]3CC[C@@H](C3)C2)[C@H](c2ccc(C(F)(F)F)cc2)C1 [Example 25]
Asked: Would you kindly point out which of I and II has the smaller IC50 figure? Identify your pick by its label.
Given back: I

----------
- Tested on: γ-secretase; production of amyloid beta protein Aβ(1-42)
- measurement.protocol: Cell-Based γ-Secretase Assay with ELISA Readout
- applied.conditions: human WT-APP overexpressing CHO cells; geometric mean of 2 determinations unless otherwise indicated (footnote 2: 6-14 determinations); read-out: Aβ 42B IC50
pIC50: −log10 of the molar value.
readout.type: pIC50

(P) O=C(O)C[C@@H]1CC[C@@H](N(CC2CCCC2)CC2CCCC2)[C@H](c2ccc(Cl)cc2)C1
(Q) O=C(O)C[C@@H]1CC[C@@H](N(CC2CCCC2)CC2CCCC2)[C@H](c2ccc(C(F)(F)F)cc2)O1
(R) O=C(O)C[C@@H]1CC[C@@H](N(Cc2ccccc2)CC2CCCC2)[C@H](c2ccc(C(F)(F)F)cc2)C1
Asked: Rank order required: pIC50, descending. Write out the labels following the order that was asked for.
Given back: R, Q, P

(A) CC(C)CCN(CCC(C)C)[C@@H]1CC[C@@H]([C@H](C)C(=O)O)C[C@H]1c1ccc(C(F)(F)F)cc1 (single isomer, unassigned)
(B) CC(C)CN(CC1CCCC1)[C@@H]1CC[C@@H](CC(=O)O)O[C@H]1c1ccc(C(F)(F)F)cc1
(C) O=C(O)C[C@@H]1CC[C@@H](N(CC2CCCC2)CC2CCCC2)[C@H](c2ccc(C(F)(F)F)cc2)C1
Asked: Could you please order the items by pIC50, going from the lowest number to the highest? Write out the labels following the order that was asked for.
Given back: A, B, C
(A: 5.80, B: 6.22, C: 6.64)
